# test.system: T1, human IL6R-Fc protein (human, biotin-labeled in the ELISAs (sites not given))
# T1 construct: In house made; also called biotin-labeled human IL6R-Fc protein
# T1 sequence (chain, as listed by the source limits assumed): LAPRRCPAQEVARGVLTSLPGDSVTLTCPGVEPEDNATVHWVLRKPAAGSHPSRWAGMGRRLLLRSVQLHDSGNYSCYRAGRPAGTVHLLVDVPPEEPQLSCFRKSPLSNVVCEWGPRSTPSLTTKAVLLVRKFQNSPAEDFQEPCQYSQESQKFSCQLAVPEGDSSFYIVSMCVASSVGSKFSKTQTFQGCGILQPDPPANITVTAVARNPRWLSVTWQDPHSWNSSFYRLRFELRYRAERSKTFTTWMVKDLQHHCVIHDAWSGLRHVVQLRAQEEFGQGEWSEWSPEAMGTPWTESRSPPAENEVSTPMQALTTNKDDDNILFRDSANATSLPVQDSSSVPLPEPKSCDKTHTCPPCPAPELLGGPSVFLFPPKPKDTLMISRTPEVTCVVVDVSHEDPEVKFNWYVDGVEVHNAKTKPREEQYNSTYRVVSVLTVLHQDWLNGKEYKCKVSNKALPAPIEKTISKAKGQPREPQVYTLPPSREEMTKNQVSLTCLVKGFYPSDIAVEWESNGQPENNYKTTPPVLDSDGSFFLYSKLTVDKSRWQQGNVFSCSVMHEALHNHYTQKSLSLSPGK
# experimental.details: ligand blocking ELISA: antibody pre-incubated with biotin-labeled human IL6R-Fc, added to plate-coated human IL6 (blocked ligand: human IL6)
test.readout: IC50 (pM)
The figure you give is taken to be in pM; do not add the unit.

Query :: Quick one: IC50 for Chimeric 1H7 (antibody, human IgG1, kappa, V domains shown, Mouse variable regions on human IgG1 / human kappa constant regions; also called chimeric antibody 1H7) VH: QVQLQQPGTELVKPGASVKLSCKASGYTFTNYWMHWVKQRPGQGLDWIGEINPTNGRTNYNENFKSKATLTVDKSSSTAYMQLSSLTSEDSAVYYCARLNTHYVFDSWGQGTTLTLSS VL: EIVLTQSPTTLAASPGEKITFTCSVSSSISSNYLHWYQQKPGFSPKLLISRTSTLASGVPARFSGSGSGTSYSLTIGTMEAEDVATYYCQQGSGIPFTFGSGTKLELKR ?
Result :: 261

Ref: patent US20230167182A1
